The reported measurements were obtained from the supplement of paper PMC8617591.

Test system: Mycobacterium tuberculosis Erdman (autoluminescent)
experiment: AUC25, normalised area under dose response up to IC25 (three-drug combination) (fraction (0-1)); higher = more potent at low dose
condition_notes: in vitro model: butyrate; time point: constant (~7 days, model-specific)
Below, each of the molecules is paired with its reported AUC25 value.

{"molecule": "CC(C)/N=c1\\cc2n(-c3ccc(Cl)cc3)c3ccccc3nc-2cc1Nc1ccc(Cl)cc1 [clofazimine] + CC(=O)NC[C@H]1CN(c2ccc(N3CCOCC3)c(F)c2)C(=O)O1 [linezolid] + CO[C@H]1/C=C/O[C@@]2(C)Oc3c(C)c(O)c4c(O)c(c(/C=N/N5CCN(C6CCCC6)CC5)c(O)c4c3C2=O)NC(=O)/C(C)=C\\C=C\\[C@H](C)[C@H](O)[C@@H](C)[C@@H](O)[C@@H](C)[C@H](OC(C)=O)[C@@H]1C [rifapentine]", "AUC25": 0.0929}
{"molecule": "COc1nc2ccc(Br)cc2cc1[C@@H](c1ccccc1)[C@@](O)(CCN(C)C)c1cccc2ccccc12 [bedaquiline] + O=[N+]([O-])c1cn2c(n1)OC[C@@H](OCc1ccc(OC(F)(F)F)cc1)C2 [pretomanid] + CO[C@H]1/C=C/O[C@@]2(C)Oc3c(C)c(O)c4c(O)c(c(/C=N/N5CCN(C)CC5)c(O)c4c3C2=O)NC(=O)/C(C)=C\\C=C\\[C@H](C)[C@H](O)[C@@H](C)[C@@H](O)[C@@H](C)[C@H](OC(C)=O)[C@@H]1C [rifampicin]", "AUC25": 0.106}
{"molecule": "CC(C)/N=c1\\cc2n(-c3ccc(Cl)cc3)c3ccccc3nc-2cc1Nc1ccc(Cl)cc1 [clofazimine] + O=[N+]([O-])c1cn2c(n1)OC[C@@H](OCc1ccc(OC(F)(F)F)cc1)C2 [pretomanid] + CO[C@H]1/C=C/O[C@@]2(C)Oc3c(C)c(O)c4c(O)c(c(/C=N/N5CCN(C)CC5)c(O)c4c3C2=O)NC(=O)/C(C)=C\\C=C\\[C@H](C)[C@H](O)[C@@H](C)[C@@H](O)[C@@H](C)[C@H](OC(C)=O)[C@@H]1C [rifampicin]", "AUC25": 0.104}

---

Tested on: Mycobacterium tuberculosis Erdman (autoluminescent)
experiment: AUC25, normalised area under dose response up to IC25 (three-drug combination) (fraction (0-1)); higher = more potent at low dose
condition_notes: in vitro model: valerate; time point: constant (~7 days, model-specific)
Below, each of the compounds is paired with its reported AUC25 value.

{"compound": "CC(C)/N=c1\\cc2n(-c3ccc(Cl)cc3)c3ccccc3nc-2cc1Nc1ccc(Cl)cc1 [clofazimine] + CC(=O)NC[C@H]1CN(c2ccc(N3CCOCC3)c(F)c2)C(=O)O1 [linezolid] + CO[C@H]1/C=C/O[C@@]2(C)Oc3c(C)c(O)c4c(O)c(c(/C=N/N5CCN(C6CCCC6)CC5)c(O)c4c3C2=O)NC(=O)/C(C)=C\\C=C\\[C@H](C)[C@H](O)[C@@H](C)[C@@H](O)[C@@H](C)[C@H](OC(C)=O)[C@@H]1C [rifapentine]", "target_or_system": "Mycobacterium tuberculosis Erdman (autoluminescent)", "AUC25": 0.113}
{"compound": "NNC(=O)c1ccncc1 [isoniazid] + COc1c(N2C[C@@H]3CCCN[C@@H]3C2)c(F)cc2c(=O)c(C(=O)O)cn(C3CC3)c12 [moxifloxacin] + CO[C@H]1/C=C/O[C@@]2(C)Oc3c(C)c(O)c4c(O)c(c(/C=N/N5CCN(C6CCCC6)CC5)c(O)c4c3C2=O)NC(=O)/C(C)=C\\C=C\\[C@H](C)[C@H](O)[C@@H](C)[C@@H](O)[C@@H](C)[C@H](OC(C)=O)[C@@H]1C [rifapentine]", "target_or_system": "Mycobacterium tuberculosis Erdman (autoluminescent)", "AUC25": 0.0564}
{"compound": "CC(C)/N=c1\\cc2n(-c3ccc(Cl)cc3)c3ccccc3nc-2cc1Nc1ccc(Cl)cc1 [clofazimine] + COc1c(N2C[C@@H]3CCCN[C@@H]3C2)c(F)cc2c(=O)c(C(=O)O)cn(C3CC3)c12 [moxifloxacin] + NC(=O)c1cnccn1 [pyrazinamide]", "target_or_system": "Mycobacterium tuberculosis Erdman (autoluminescent)", "AUC25": 0.122}

---

Below, each of the compounds is paired with its reported AUC25 value.
Tested on: Mycobacterium tuberculosis Erdman (autoluminescent)
experiment: AUC25, normalised area under dose response up to IC25 (fraction (0-1)); higher = more potent at low dose
condition_notes: in vitro model: valerate; time point: constant (~7 days, model-specific)

{"compound": "CC(C)/N=c1\\cc2n(-c3ccc(Cl)cc3)c3ccccc3nc-2cc1Nc1ccc(Cl)cc1 [clofazimine] + COc1c(N2C[C@@H]3CCCN[C@@H]3C2)c(F)cc2c(=O)c(C(=O)O)cn(C3CC3)c12 [moxifloxacin]", "AUC25": 0.139}
{"compound": "COc1nc2ccc(Br)cc2cc1[C@@H](c1ccccc1)[C@@](O)(CCN(C)C)c1cccc2ccccc12 [bedaquiline] + CO[C@H]1/C=C/O[C@@]2(C)Oc3c(C)c(O)c4c(O)c(c(/C=N/N5CCN(C)CC5)c(O)c4c3C2=O)NC(=O)/C(C)=C\\C=C\\[C@H](C)[C@H](O)[C@@H](C)[C@@H](O)[C@@H](C)[C@H](OC(C)=O)[C@@H]1C [rifampicin]", "AUC25": 0.0727}
{"compound": "COc1c(N2C[C@@H]3CCCN[C@@H]3C2)c(F)cc2c(=O)c(C(=O)O)cn(C3CC3)c12 [moxifloxacin] + CO[C@H]1/C=C/O[C@@]2(C)Oc3c(C)c(O)c4c(O)c(c(/C=N/N5CCN(C)CC5)c(O)c4c3C2=O)NC(=O)/C(C)=C\\C=C\\[C@H](C)[C@H](O)[C@@H](C)[C@@H](O)[C@@H](C)[C@H](OC(C)=O)[C@@H]1C", "AUC25": 0.04}
{"compound": "CC(=O)NC[C@H]1CN(c2ccc(N3CCOCC3)c(F)c2)C(=O)O1 [linezolid] + O=[N+]([O-])c1cn2c(n1)OC[C@@H](OCc1ccc(OC(F)(F)F)cc1)C2 [pretomanid]", "AUC25": 0.102}

---

Below, each of the molecules is paired with its reported Einf value.
Tested on: Mycobacterium tuberculosis Erdman (autoluminescent)
experiment: Einf, fitted maximum growth inhibition of three-drug combination (fraction); higher = stronger maximal inhibition
condition_notes: in vitro model: cholesterol 0.05 mM; time point: terminal (~4-5 doublings, model-specific)

{"molecule": "COc1nc2ccc(Br)cc2cc1[C@@H](c1ccccc1)[C@@](O)(CCN(C)C)c1cccc2ccccc12 [bedaquiline] + NNC(=O)c1ccncc1 [isoniazid] + O=[N+]([O-])c1cn2c(n1)OC[C@@H](OCc1ccc(OC(F)(F)F)cc1)C2 [pretomanid]", "Einf": 0.924}
{"molecule": "CC[C@@H](CO)NCCN[C@@H](CC)CO [ethambutol] + CO[C@H]1/C=C/O[C@@]2(C)Oc3c(C)c(O)c4c(O)c(c(/C=N/N5CCN(C6CCCC6)CC5)c(O)c4c3C2=O)NC(=O)/C(C)=C\\C=C\\[C@H](C)[C@H](O)[C@@H](C)[C@@H](O)[C@@H](C)[C@H](OC(C)=O)[C@@H]1C [rifapentine] + CO[C@H]1/C=C/O[C@@]2(C)Oc3c(C)c(O)c4c(O)c(c(/C=N/N5CCN(C)CC5)c(O)c4c3C2=O)NC(=O)/C(C)=C\\C=C\\[C@H](C)[C@H](O)[C@@H](C)[C@@H](O)[C@@H](C)[C@H](OC(C)=O)[C@@H]1C [rifampicin]", "Einf": 0.884}
{"molecule": "NNC(=O)c1ccncc1 [isoniazid] + O=[N+]([O-])c1cn2c(n1)OC[C@@H](OCc1ccc(OC(F)(F)F)cc1)C2 [pretomanid] + CO[C@H]1/C=C/O[C@@]2(C)Oc3c(C)c(O)c4c(O)c(c(/C=N/N5CCN(C)CC5)c(O)c4c3C2=O)NC(=O)/C(C)=C\\C=C\\[C@H](C)[C@H](O)[C@@H](C)[C@@H](O)[C@@H](C)[C@H](OC(C)=O)[C@@H]1C [rifampicin]", "Einf": 0.899}
{"molecule": "CC[C@@H](CO)NCCN[C@@H](CC)CO [ethambutol] + CC(=O)NC[C@H]1CN(c2ccc(N3CCOCC3)c(F)c2)C(=O)O1 [linezolid] + CO[C@H]1/C=C/O[C@@]2(C)Oc3c(C)c(O)c4c(O)c(c(/C=N/N5CCN(C6CCCC6)CC5)c(O)c4c3C2=O)NC(=O)/C(C)=C\\C=C\\[C@H](C)[C@H](O)[C@@H](C)[C@@H](O)[C@@H](C)[C@H](OC(C)=O)[C@@H]1C [rifapentine]", "Einf": 0.936}
{"molecule": "CC(C)/N=c1\\cc2n(-c3ccc(Cl)cc3)c3ccccc3nc-2cc1Nc1ccc(Cl)cc1 [clofazimine] + NC(=O)c1cnccn1 [pyrazinamide] + CO[C@H]1/C=C/O[C@@]2(C)Oc3c(C)c(O)c4c(O)c(c(/C=N/N5CCN(C6CCCC6)CC5)c(O)c4c3C2=O)NC(=O)/C(C)=C\\C=C\\[C@H](C)[C@H](O)[C@@H](C)[C@@H](O)[C@@H](C)[C@H](OC(C)=O)[C@@H]1C [rifapentine]", "Einf": 0.899}
